test system: Pseudomonas aeruginosa; test: Minimum inhibitory concentration against Pseudomonas aeruginosa K690, measured in Muller-Hinton (MH) solid media; format: functional
Please go through the items and note down their MIC.

Answered examples (5):
• CCn1cc(C(=O)O)c(=O)c2cc(F)c(N3CCN(C(=O)OCOC(=O)CCC(=O)NCCNC(=O)CCC(=O)Nc4cc5cc(O)c(O)cc5[n+]5c4NCC[C@H]5C(=O)N[C@H](CO)C(=O)N[C@@H](CCCN=C(N)N)C(=O)N[C@H](CO)C(=O)N[C@@](C)(CCCN(O)C=O)C(=O)N[C@H]4CCCCNC(=O)[C@H]([C@@H](C)O)NC(=O)[C@H]([C@@H](C)O)NC(=O)[C@H](CCCN(O)C=O)NC4=O)CC3)cc21 = 16 µg/mL
• CCn1cc(C(=O)O)c(=O)c2cc(F)c(N3CCNCC3)cc21 = 8 µg/mL
• Cn1cc(C(=O)O)c(=O)c2cc3cc(F)c(N4CCNCC4)cc3nc21 = 32 µg/mL
• C[C@@H](O)[C@@H]1NC(=O)[C@H](CCCN(O)C=O)NC(=O)[C@@H](NC(=O)[C@](C)(CCCN(O)C=O)NC(=O)[C@@H](CO)NC(=O)[C@H](CCCN=C(N)N)NC(=O)[C@@H](CO)NC(=O)[C@@H]2CCNc3c(NC(=O)CCC(=O)NCCNC(=O)CCC(=O)OCOC(=O)N4CCN(c5cc6nc7c(cc6cc5F)c(=O)c(C(=O)O)cn7C)CC4)cc4cc(O)c(O)cc4[n+]32)CCCCNC(=O)[C@H]([C@@H](C)O)NC1=O = 32 µg/mL
• CCn1cc(C(=O)O)c(=O)c2cc(F)c(N3CCN(C(=O)CCC(=O)NCCNC(=O)CCC(=O)Nc4cc5cc(O)c(O)cc5[n+]5c4NCC[C@H]5C(=O)N[C@H](CO)C(=O)N[C@@H](CCCN=C(N)N)C(=O)N[C@H](CO)C(=O)N[C@@](C)(CCCN(O)C=O)C(=O)N[C@H]4CCCCNC(=O)[C@H]([C@@H](C)O)NC(=O)[C@H]([C@@H](C)O)NC(=O)[C@H](CCCN(O)C=O)NC4=O)CC3)cc21 = 32 µg/mL

-- ask Respond only with MIC recorded for C[C@@H](O)[C@@H]1NC(=O)[C@H](CCCN(O)C=O)NC(=O)[C@@H](NC(=O)[C@](C)(CCCN(O)C=O)NC(=O)[C@@H](CO)NC(=O)[C@H](CCCN=C(N)N)NC(=O)[C@@H](CO)NC(=O)[C@@H]2CCNc3c(NC(=O)CCC(=O)NCCNC(=O)CCC(=O)N4CCN(c5cc6nc7c(cc6cc5F)c(=O)c(C(=O)O)cn7C)CC4)cc4cc(O)c(O)cc4[n+]32)CCCCNC(=O)[C@H]([C@@H](C)O)NC1=O
-- reply 64 µg/mL

----------
tested on: Pseudomonas aeruginosa; assay: Minimum inhibitory concentration against Pseudomonas aeruginosa ATCC 15692 measured in Muller-Hinton (MH) liquid media; format: functional
reported endpoint: MIC (µg/mL)
Numbers only, in µg/mL.

• Cn1cc(C(=O)O)c(=O)c2cc3cc(F)c(N4CCNCC4)cc3nc21 = 16

Give MIC for each listed item.
1. CCn1cc(C(=O)O)c(=O)c2cc(F)c(N3CCN(C(=O)OCOC(=O)CCC(=O)NCCNC(=O)CCC(=O)Nc4cc5cc(O)c(O)cc5[n+]5c4NCC[C@H]5C(=O)N[C@H](CO)C(=O)N[C@@H](CCCN=C(N)N)C(=O)N[C@H](CO)C(=O)N[C@@](C)(CCCN(O)C=O)C(=O)N[C@H]4CCCCNC(=O)[C@H]([C@@H](C)O)NC(=O)[C@H]([C@@H](C)O)NC(=O)[C@H](CCCN(O)C=O)NC4=O)CC3)cc21
2. CCn1cc(C(=O)O)c(=O)c2cc(F)c(N3CCNCC3)cc21 [NORFLOXACIN]

-- reply
1. 2
2. 1

-- ask Respond only with MIC recorded for C[C@@H](O)[C@@H]1NC(=O)[C@H](CCCN(O)C=O)NC(=O)[C@@H](NC(=O)[C@](C)(CCCN(O)C=O)NC(=O)[C@@H](CO)NC(=O)[C@H](CCCN=C(N)N)NC(=O)[C@@H](CO)NC(=O)[C@@H]2CCNc3c(NC(=O)CCC(=O)NCCNC(=O)CCC(=O)OCOC(=O)N4CCN(c5cc6nc7c(cc6cc5F)c(=O)c(C(=O)O)cn7C)CC4)cc4cc(O)c(O)cc4[n+]32)CCCCNC(=O)[C@H]([C@@H](C)O)NC1=O [BENZONAPHTHYRIDONE BPL ADDUCT]
-- reply 4

----------
Please go through the items and note down their MIC.
system: Pseudomonas aeruginosa; assay: Minimum inhibitory concentration against Pseudomonas aeruginosa ATCC 15692 measured in succinate (SC) liquid media; format: functional
Give bare numbers, in µg/mL.

Answered examples (2):
* CCn1cc(C(=O)O)c(=O)c2cc(F)c(N3CCN(C(=O)OCOC(=O)CCC(=O)NCCNC(=O)CCC(=O)Nc4cc5cc(O)c(O)cc5[n+]5c4NCC[C@H]5C(=O)N[C@H](CO)C(=O)N[C@@H](CCCN=C(N)N)C(=O)N[C@H](CO)C(=O)N[C@@](C)(CCCN(O)C=O)C(=O)N[C@H]4CCCCNC(=O)[C@H]([C@@H](C)O)NC(=O)[C@H]([C@@H](C)O)NC(=O)[C@H](CCCN(O)C=O)NC4=O)CC3)cc21 | 0.5
* CCn1cc(C(=O)O)c(=O)c2cc(F)c(N3CCNCC3)cc21 [NORFLOXACIN] | 0.25

Give MIC for each listed item.
1. Cn1cc(C(=O)O)c(=O)c2cc3cc(F)c(N4CCNCC4)cc3nc21
2. C[C@@H](O)[C@@H]1NC(=O)[C@H](CCCN(O)C=O)NC(=O)[C@@H](NC(=O)[C@](C)(CCCN(O)C=O)NC(=O)[C@@H](CO)NC(=O)[C@H](CCCN=C(N)N)NC(=O)[C@@H](CO)NC(=O)[C@@H]2CCNc3c(NC(=O)CCC(=O)NCCNC(=O)CCC(=O)OCOC(=O)N4CCN(c5cc6nc7c(cc6cc5F)c(=O)c(C(=O)O)cn7C)CC4)cc4cc(O)c(O)cc4[n+]32)CCCCNC(=O)[C@H]([C@@H](C)O)NC1=O [BENZONAPHTHYRIDONE BPL ADDUCT]

-- reply
1. 64
2. 2

Recorded values, source ChEMBL document CHEMBL1134513.
